IC50 by entry:
# Test system: KB
# test: Cytotoxicity against human KB cells by MTT assay
# Assay type: functional, cell-based

smiles data: CCCCn1c2ccccc2c2cc(C(=O)N[C@@H](Cc3ccccc3)C(=O)OCC)ncc21
relation sign: =
IC50 (µM): 113

smiles data: CCOC(=O)[C@H](Cc1ccccc1)NC(=O)c1cc2c3ccccc3n(Cc3ccccc3)c2c[n+]1Cc1ccccc1
relation sign: =
IC50 (µM): 51.4

smiles data: CCCCn1c2ccccc2c2cc(C(=O)N[C@H](C(=O)OCC)C(C)C)[n+](Cc3ccccc3)cc21
relation sign: =
IC50 (µM): 28.4

smiles data: CC(C)[C@H](NC(=O)c1cc2c3ccccc3n(CCCc3ccccc3)c2cn1)C(=O)O
relation sign: =
IC50 (µM): 106

smiles data: CCCCn1c2ccccc2c2cc(C(=O)N[C@@H](Cc3ccc(O)cc3)C(=O)OC)ncc21
relation sign: >
IC50 (µM): 200

smiles data: O=C(N[C@@H](Cc1ccccc1)C(=O)O)c1cc2c3ccccc3n(CCCc3ccccc3)c2cn1
relation sign: =
IC50 (µM): 38.8

smiles data: C[C@H](NC(=O)c1cc2c3ccccc3n(CCCc3ccccc3)c2cn1)C(=O)O
relation sign: =
IC50 (µM): 179

smiles data: CCCCn1c2ccccc2c2cc(C(=O)N[C@@H](Cc3ccccc3)C(=O)O)ncc21
relation sign: =
IC50 (µM): 155

smiles data: CCCCn1c2ccccc2c2cc(C(=O)N[C@@H](Cc3ccccc3)C(=O)OC)ncc21
relation sign: >
IC50 (µM): 200

smiles data: CCOC(=O)[C@@H](NC(=O)c1cc2c3ccccc3n(CCCc3ccccc3)c2cn1)C(C)C
relation sign: >
IC50 (µM): 200

smiles data: CCCCn1c2ccccc2c2cc(C(=O)N[C@@H](CCSC)C(=O)OCC)nc(C)c21
relation sign: >
IC50 (µM): 200

smiles data: CCCCn1c2ccccc2c2cc(C(=O)N[C@H](C(=O)OC)C(C)C)ncc21
relation sign: >
IC50 (µM): 200

smiles data: CCCCn1c2ccccc2c2cc(C(=O)N[C@@H](Cc3ccc(O)cc3)C(=O)O)ncc21
relation sign: >
IC50 (µM): 200

smiles data: CSCC[C@H](NC(=O)c1cc2c3ccccc3n(CCCc3ccccc3)c2cn1)C(=O)O
relation sign: =
IC50 (µM): 96.6

smiles data: CCCCn1c2ccccc2c2cc(C(=O)N[C@@H](Cc3ccccc3)C(=O)OCC)[n+](Cc3ccccc3)cc21
relation sign: =
IC50 (µM): 11.3

smiles data: CCOC(=O)[C@H](CCSC)NC(=O)c1cc2c3ccccc3n(CCCc3ccccc3)c2cn1
relation sign: =
IC50 (µM): 176

smiles data: CCCCn1c2ccccc2c2cc(C(=O)N[C@@H](C)C(=O)OC)ncc21
relation sign: >
IC50 (µM): 200

smiles data: COC(=O)[C@H](C)NC(=O)c1cc2c3ccccc3n(CCCc3ccccc3)c2cn1
relation sign: >
IC50 (µM): 200

smiles data: CSCC[C@H](NC(=O)c1cc2c3ccccc3n(Cc3ccccc3)c2cn1)C(=O)O
relation sign: =
IC50 (µM): 135

smiles data: CCOC(=O)[C@@H](NC(=O)c1cc2c3ccccc3n(CCCc3ccccc3)c2c[n+]1Cc1ccccc1)C(C)C
relation sign: =
IC50 (µM): 12.5

smiles data: CCOC(=O)[C@@H](NC(=O)c1cc2c3ccccc3n(Cc3ccccc3)c2c[n+]1Cc1ccccc1)C(C)C
relation sign: =
IC50 (µM): 25.3

smiles data: CCCCn1c2ccccc2c2cc(C(=O)N[C@@H](CCSC)C(=O)OCC)ncc21
relation sign: >
IC50 (µM): 200

smiles data: CCCCn1c2ccccc2c2cc(C(=O)N[C@@H](CCSC)C(=O)OCC)[n+](Cc3ccccc3)cc21
relation sign: =
IC50 (µM): 10.8

smiles data: CCCCn1c2ccccc2c2cc(C(=O)N[C@@H](CCSC)C(=O)O)ncc21
relation sign: >
IC50 (µM): 200

smiles data: CC(=O)O[C@H]1C(=O)[C@@]2(C)[C@H]([C@H](OC(=O)c3ccccc3)[C@]3(O)C[C@H](OC(=O)[C@H](O)[C@@H](NC(=O)c4ccccc4)c4ccccc4)C(C)=C1C3(C)C)[C@]1(OC(C)=O)CO[C@@H]1C[C@@H]2O
relation sign: =
IC50 (µM): 0.08

smiles data: CCOC(=O)[C@H](Cc1ccccc1)NC(=O)c1cc2c3ccccc3n(Cc3ccccc3)c2cn1
relation sign: >
IC50 (µM): 200

smiles data: CCOC(=O)[C@H](CCSC)NC(=O)c1cc2c3ccccc3n(CCCc3ccccc3)c2c[n+]1Cc1ccccc1
relation sign: =
IC50 (µM): 9.4

smiles data: CCCCn1c2ccccc2c2cc(C(=O)N[C@@H](Cc3ccccc3)C(=O)OCC)nc(C)c21
relation sign: >
IC50 (µM): 200

smiles data: CCOC(=O)[C@H](CCSC)NC(=O)c1cc2c3ccccc3n(Cc3ccccc3)c2cn1
relation sign: >
IC50 (µM): 200

smiles data: CCOC(=O)[C@H](Cc1ccccc1)NC(=O)c1cc2c3ccccc3n(CCCc3ccccc3)c2cn1
relation sign: =
IC50 (µM): 89.2

smiles data: CCOC(=O)[C@H](Cc1ccccc1)NC(=O)c1cc2c3ccccc3n(CCCc3ccccc3)c2c[n+]1Cc1ccccc1
relation sign: =
IC50 (µM): 18.2

FYI, the data here is from ChEMBL document CHEMBL1157050.
